Entries and their measured inhibition at 0.1 µM follow.
- Experimental system: 5HT6 human recombinant receptor (Homo sapiens)
- Construct: purchased Receptor Biology; host or cells: HEK-293 cell membranes (recombinant expression)
- Sequence (P50406 whole entry): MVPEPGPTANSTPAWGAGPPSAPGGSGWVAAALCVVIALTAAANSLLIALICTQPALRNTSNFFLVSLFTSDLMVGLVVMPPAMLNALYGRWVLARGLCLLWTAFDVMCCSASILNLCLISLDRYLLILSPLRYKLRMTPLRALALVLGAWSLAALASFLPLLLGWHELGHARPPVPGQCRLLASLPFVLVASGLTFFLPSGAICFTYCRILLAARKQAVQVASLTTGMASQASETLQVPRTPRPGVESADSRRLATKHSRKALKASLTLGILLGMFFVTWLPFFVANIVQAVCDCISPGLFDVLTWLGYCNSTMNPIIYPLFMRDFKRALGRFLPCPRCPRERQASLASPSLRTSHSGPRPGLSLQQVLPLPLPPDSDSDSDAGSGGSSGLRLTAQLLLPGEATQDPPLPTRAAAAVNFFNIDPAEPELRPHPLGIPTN
- Test protocol: Binding Test to 5-HT6 Receptors ([3H]-LSD displacement, HEK-293 membranes)
- Cond: compound at 10^−7 M, [3H]-LSD 2.7 nM, 60 min, 37° C.
Where a name gives a salt, the structure may show the parent alone.
Please reply with the bare figure in % and do not write the unit itself.

Check out these entries, answers already filled in.
                                   compound      measurement_kind  units_text  measured_number
0  CN1CCOc2cc(S(=O)(=O)Nc3ccc4c(c3)/C(=N\NC(=N)N)CC4)ccc21 [Compound 23, hydrochloride]  inhibition at 0.1 µM           %             87.3
1  N=C(N)N/N=C1/CCc2ccc(NS(=O)(=O)c3c(Cl)nc4sccn34)cc21  inhibition at 0.1 µM           %             89.6
2  CN1CCN(C2CCc3cc(NS(=O)(=O)c4c(Cl)nc5sccn45)ccc32)CC1 (stereo not shown)  inhibition at 0.1 µM           %             85.8

Attention now turns to another entry.
Fill blank: measured inhibition at 0.1 µM of the compound CC1(C)CC(=NNC(=N)N)c2cc(NS(=O)(=O)c3c(Cl)nc4sccn34)ccc21 [Compound 20, hydrochloride] is ____.
87.7
